- TARGET_SYSTEM: guinea pig serum albumin (guinea pig)
- PROTOCOL_DESCRIPTION: ProteOn kinetic analysis
READOUT_NAME: kon (M⁻¹ s⁻¹)

binder="SEQ ID NO 145 (VHH, also called T at position 30) VHH: DVQLVESGGGVVQPGGSLRLSCAASGFTFTSFGMSWVRQAPGKGPEWVSSISGSGSDTLYADSVKGRFTISRDNSKNTLYLQMNSLRPEDTAAYYCTIGGSLSRSGQGTLVTVSS" readout_name=kon observed_value=790000
binder="SEQ ID NO 129 (VHH, also called T at position 30) VHH: DVQLVESGGGVVQPGGSLRLSCAASGFTFTSFGMSWVRQAPGKGPEWVSSISGSGSDTLYADSVKGRFTISRDNSKNTLYLQMNSLRPEDTATYYCTIGGSLSRSGQGTLVTVSS" readout_name=kon observed_value=790000
binder="SEQ ID NO 10 (VHH, also called R at position 30) VHH: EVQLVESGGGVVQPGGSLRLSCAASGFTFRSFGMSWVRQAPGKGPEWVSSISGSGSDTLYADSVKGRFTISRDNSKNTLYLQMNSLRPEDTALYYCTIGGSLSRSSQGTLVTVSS" readout_name=kon observed_value=1.2e+06
binder="SEQ ID NO 127 (VHH, also called T at position 30) VHH: DVQLVESGGGVVQPGGSLRLSCAASGFTFTSFGMSWVRQAPGKGPEWVSSISGSGSDTLYADSVKGRFTISRDNSKNTLYLQMNSLRPEDTALYYCTIGGSLSRSGQGTLVTVSS" readout_name=kon observed_value=870000
